TARGET_UNDER_TEST: T1, recombinant cynomolgus CFD, His-tagged (cynomolgus)
T1 construct: also called rcyCFD-His; recombinant Cyno-CFD
ASSAY_REMARKS: SPR MX96
# Kd per entry
PROPERTY_LABEL: Kd (nM)

[
  {
    "BINDER": "KCD135 (antibody, V domains shown) VH: EVQLQQSGPELVKPGASVRMSCKASGYIFTDYSIHWVKQSHGKSLEWIGYINPNNGGTSYNQKFKGKATLTVNKSSTTAYMELRSLTSEDSAVYFCARDTTIVGDYWGQGTTLTVSS VL: DIVMTQSQKFMSTSVGDRVSVTCKASQHVGTNVVWYQQKPGQSPKALIYSASYRYSGVPDRFSGSGSGTDFTLTISNVQSEDLAEYFCQQFNSYPLTFGGGTKLEIK",
    "PROPERTY_LABEL": "Kd",
    "OBS_VALUE": 18
  },
  {
    "BINDER": "KCD001 (antibody, V domains shown) VH: EVQLQQSGPELVKPGASVKISCKASDNSFTGYYMHWVKQSHGNILDWIGYIDPYNGVSSYNQKFKGKATLTVDKSSSTAYMEIRSLTSEDSAVYYCASYYGSSPYWYFDVWGTGTTVTVSS VL: QIVLSQSPAILSASPGEKVTMTCRASSSVSYMHWYQQKPGSSPKPWIYATSNLASGVPARFSGSGSGTSHFLTISRLEAEDAATYFCQQWSSNPYTFGGGTKLEIK",
    "PROPERTY_LABEL": "Kd",
    "OBS_VALUE": 0.63
  }
]
